B1: ZMYND11 (parent)
chain: YCSIKCQQEHWHAEHKRTCRRKR

variants of: B1; assay: protein stability index of a GFP-peptide fusion (GPS, HEK-293T) (PSI 1-6); higher = more stable; settings: c terminus: native;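 note: lentivirally expressed fusions sorted by FACS into six bins by GFP to DsRed ratio, PSI derived from sequencing read proportions per bin multiplied by bin number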
value kind: protein stability index
Form field (numeric): enter value without unit.

For record YCSFKCQQEHWHAEHKRTCRRKR [I4F] the listed protein stability index is 2.66

So, YCSIKCQQEHWRAEHKRTCRRKR [H12R] ? Its protein stability index was 2.53

protein stability index recorded for this variant, YPSIKCQQEHWHAEHKRTCRRKR [C2P] , is 2.2

The variant YCSIKCQQEHWHAELKRTCRRKR [H15L] showed protein stability index equal to 3.01

// recorded protein stability index for YCSIKCQQEHYHAEHKRTCRRKR [W11Y] : 3.32

So, YCSIKFQQEHWHAEHKRTCRRKR [C6F] ? Its protein stability index was 1.96

protein stability index reported for this variant YNSIKCQQEHWHAEHKRTCRRKR [C2N] : 3.64

Given item YISIKCQQEHWHAEHKRTCRRKR [C2I] , the value recorded as its protein stability index is 1.92

Reported protein stability index ( YCSIKCQQEHWHAEHKWTCRRKR [R17W] ) = 1.56

The reported value for YCSIKCQQEHWHAEHKYTCRRKR [R17Y] in terms of protein stability index is 1.82

The recorded protein stability index for entry YCSIKCQQEHWHAEHKRLCRRKR [T18L] equals 1.27

Sure, the documented protein stability index for YCSIKCQQEGWHAEHKRTCRRKR [H10G] is 2.81

The reported value for YCSIKCQQEHWHAEHTRTCRRKR [K16T] in terms of protein stability index is 2.71

Notebook: YCSIKCQQEHWHAWHKRTCRRKR [E14W] , protein stability index read as 1.71

Query YCSKKCQQEHWHAEHKRTCRRKR [I4K] yields protein stability index of 2.37

Per the record, YCSIKCTQEHWHAEHKRTCRRKR [Q7T] has protein stability index of 2.63

Memo: YCSIKCQQEHWHAEHKRTCRRKM [R23M] , reported protein stability index: 2.15

For YCSIKCQQEHWHAEHKRTCSRKR [R20S] the variant record lists protein stability index as 1.99

Per the record, YCSIKCNQEHWHAEHKRTCRRKR [Q7N] has protein stability index of 2.38

Given item YCSIKCQQEHWHAEHKRTWRRKR [C19W] , the value recorded as its protein stability index is 1.98

Documented protein stability index of YCSIKCQQEHWHAEHKRTCRPKR [R21P] : 1.52

Field protein stability index (entry YCSIKCQIEHWHAEHKRTCRRKR [Q8I] ) reads 1.49
